Experiment: in vivo
Details: female, Balb/c nude, mouse, po, 2 mg/kg
Experimental endpoint: Cmax (nM)
Write it as a number; the unit nM goes unstated.

Reported Cmax ( CC(Oc1ccc2[nH]nc(/C=C/c3ccc(CN4CCOCC4)cc3)c2c1)c1c(Cl)cncc1Cl (stereo not shown) ) = 214

---

pIC50: −log10 of the molar value.
These records show pIC50 for FGFR1 (Homo sapiens).

Examples with their reported pIC50 follow.
Compound	Result
CC(Oc1ccc2[nH]nc(-c3ccc(C(=O)N4CCNCC4C)cc3)c2c1)c1c(Cl)cncc1Cl (stereo not drawn)	6.00 to 7.30
CCN(Cc1ccccc1)Cc1ccc(/C=C/c2n[nH]c3ccc(OC(C)c4c(Cl)cncc4Cl)cc23)cc1 (stereo not drawn) [Example 95]	6.00 to 7.30
CCN(Cc1ccc(/C=C/c2n[nH]c3ccc(OC(C)c4c(Cl)cncc4Cl)cc23)cc1)C1CCCCC1 (stereo not drawn)	6.00 to 7.30

Value sought: pIC50, system FGFR1 (Homo sapiens), item CC(=O)N1CCN(Cc2ccc(/C=C/c3n[nH]c4ccc(OC(C)c5c(Cl)cncc5Cl)cc34)cc2)CC1 (stereo not drawn) . Result: ≥ 8.00

Record CC(Oc1ccc2[nH]nc(-c3ccc(NC(=O)CN4CCOCC4)nc3)c2c1)c1c(Cl)cncc1Cl (stereo not drawn) / FGFR1 (Homo sapiens), pIC50 recorded as 6.00 to 7.30

Lab note: compound `C[C@H](Oc1ccc2[nH]nc(/C(F)=C/c3ccc(CN4CCOCC4)nc3)c2c1)c1c(Cl)cncc1Cl` tested on FGFR1 (Homo sapiens); recorded pIC50 was 6.00 to 7.30

The reported pIC50 value, FGFR1 (Homo sapiens), for CC(Oc1ccc2[nH]nc(-c3ccc(C(=O)N4CCC(N(C)C)CC4)cc3)c2c1)c1c(Cl)cncc1Cl (stereo not drawn) reads 7.30 to 8.00

Readout pIC50 for CC1CN(Cc2ccc(/C=C/c3n[nH]c4ccc(OC(C)c5c(Cl)cncc5Cl)cc34)cc2)CCN1 (stereo not drawn) , test system FGFR1 (Homo sapiens), was ≥ 8.00

Log: FGFR1 (Homo sapiens), compound CC1CN(Cc2ccc(/C=C/c3n[nH]c4ccc(OC(C)c5c(Cl)cncc5Cl)cc34)cc2)CC(C)O1 (stereo not drawn) , pIC50 = 6.00 to 7.30

Sample CC(Oc1ccc2[nH]nc(/C=C/c3ccc(CNCc4ccccc4)cc3)c2c1)c1c(Cl)cncc1Cl (stereo not drawn) , system: FGFR1 (Homo sapiens). Its pIC50 is 6.00 to 7.30

// pIC50 (FGFR1 (Homo sapiens)) for `C[C@H](Oc1ccc2[nH]nc(/C=C(\F)c3ccc(CNC4CCOCC4)nc3)c2c1)c1c(Cl)cncc1Cl` = 6.00 to 7.30

Entry CC(Oc1ccc2[nH]nc(/C=C/c3ccc(CNc4ccccc4)cc3)c2c1)c1c(Cl)cncc1Cl (stereo not drawn) , FGFR1 (Homo sapiens) data, pIC50 value: 6.00 to 7.30

Known value: FGFR1 (Homo sapiens) pIC50 of the compound CCN(Cc1ccc(/C(F)=C/c2n[nH]c3ccc(O[C@H](C)c4c(Cl)cncc4Cl)cc23)cn1)C1CCOCC1 [Example 18b] equals ≥ 8.00

Value sought: pIC50, system FGFR1 (Homo sapiens), item `C[C@@H](Oc1ccc2[nH]nc(/C=C/c3ccc(CNC4CCOCC4)nn3)c2c1)c1c(Cl)cncc1Cl` . Result: ≥ 8.00

With FGFR1 (Homo sapiens) as the test system, CC(Oc1ccc2[nH]nc(/C=C/c3ccc(CNC4CCOCC4)cc3)c2c1)c1c(Cl)cncc1Cl (stereo not drawn) showed pIC50 of ≥ 8.00

---

Experiment: in vivo
Settings: female, Balb/c nude, mouse, po, 2 mg/kg
Experimental endpoint: AUC(0-t) (µM·h)
Write the answer as a number in µM·h, unit excluded.

response.value for CC(Oc1ccc2[nH]nc(/C=C/c3ccc(CN4CCOCC4)cc3)c2c1)c1c(Cl)cncc1Cl (stereo not shown) (field: AUC(0-t)) = 0.221

---

Entries annotated with measured half-life
Experiment: Pharmacokinetics after intravenous and intragastric administration (Experimental Example 4)
Assay type: in vivo
Details: mouse, plasma; single intravenous injection 1.0 mg/kg, female Balb/c nude mice; read-out: elimination half-life (T1/2) (converted)
Reply with just the number (in min).

Molecule	Units symbol	half-life
C[C@@H](Oc1ccc2[nH]nc(/C=C/c3ccc(CNC4CCOCC4)nc3)c2c1)c1c(Cl)cncc1Cl [WX_015, reference compound]	min	58.3

We next turn to a different molecule, shown below.
Measured half-life of `C[C@@H](Oc1ccc2[nH]nc(/C=C(\F)c3ccc(CNC4CCOCC4)nc3)c2c1)c1c(Cl)cncc1Cl` : 94.2

---

Experiment: Pharmacokinetics after intravenous and intragastric administration (Experimental Example 4)
Assay type: in vivo
Conditions: mouse, plasma, po; single intragastric administration 10 mg/kg, female Balb/c nude mice; read-out: peak concentration (Cmax)
Experimental endpoint: Cmax
For clarity, give the value followed by its unit.

The measured Cmax associated with `C[C@@H](Oc1ccc2[nH]nc(/C=C(\F)c3ccc(CNC4CCOCC4)nc3)c2c1)c1c(Cl)cncc1Cl` reads 479 nM

// Cmax value for C[C@@H](Oc1ccc2[nH]nc(/C=C/c3ccc(CNC4CCOCC4)nc3)c2c1)c1c(Cl)cncc1Cl [WX_015, reference compound] : 134 nM

---

clearance reference
Assay: Pharmacokinetics after intravenous and intragastric administration (Experimental Example 4)
Assay type: in vivo
Conditions: mouse, plasma; single intravenous injection 1.0 mg/kg, female Balb/c nude mice; read-out: plasma clearance (CL)
Please respond with the number in mL/min/kg and leave the unit unwritten.

Compound	Experimental endpoint	Units symbol	Numeric result
C[C@@H](Oc1ccc2[nH]nc(/C=C(\F)c3ccc(CNC4CCOCC4)nc3)c2c1)c1c(Cl)cncc1Cl [WX_018]	clearance	mL/min/kg	53

Now consider a different compound.
Documented clearance of C[C@@H](Oc1ccc2[nH]nc(/C=C/c3ccc(CNC4CCOCC4)nc3)c2c1)c1c(Cl)cncc1Cl [WX_015, reference compound] : 83.5

---

Assay: Pharmacokinetics after intravenous and intragastric administration (Experimental Example 4)
Type: in vivo
Conditions: mouse, plasma, po; single intragastric administration 10 mg/kg, female Balb/c nude mice
Let's look at some molecules and their measured bioavailability.
Write the answer as a number in %, unit excluded.

Molecule	Units symbol	bioavailability
C[C@@H](Oc1ccc2[nH]nc(/C=C/c3ccc(CNC4CCOCC4)nc3)c2c1)c1c(Cl)cncc1Cl [WX_015, reference compound]	%	11.4

Input C[C@@H](Oc1ccc2[nH]nc(/C=C(\F)c3ccc(CNC4CCOCC4)nc3)c2c1)c1c(Cl)cncc1Cl [WX_018] . Output bioavailability: 30.1

---

Target: FGFR1 (Homo sapiens)
pIC50: −log10 of the molar value.
Experimental endpoint: pIC50

Compound	Result
CC(Oc1ccc2[nH]nc(/C=C(\F)c3ccc(CNC4CCOCC4)nc3)c2c1)c1c(F)cccc1Cl (stereo not drawn) [Example 145]	6.00 to 7.30

Record CC(Oc1ccc2[nH]nc(/C=C/c3ccc(CN4CCOCC4)c(C(F)(F)F)c3)c2c1)c1c(Cl)cncc1Cl (stereo not drawn) [Example 64] has FGFR1 (Homo sapiens) pIC50 equal to 6.00 to 7.30

Observed pIC50 on FGFR1 (Homo sapiens), entry C[C@@H](Oc1ccc2[nH]nc(/C=C/c3ccc(CN4CCC(CO)CC4)nc3)c2c1)c1c(Cl)cncc1Cl [Example 140] , equals 7.30 to 8.00

---

// each record: one item and its IC50 for FGFR1 (Homo sapiens)

Record excerpt, results attached:
Molecule	Result
CC(Oc1ccc2[nH]nc(/C(F)=C/c3ccc(CN4CCOCC4)nn3)c2c1)c1c(Cl)cncc1Cl (stereo not drawn) [Example 13]	50 to 1000 nM
C[C@@H](Oc1ccc2[nH]nc(-c3cccc(C(=O)N4CC[C@H](O)C4)c3)c2c1)c1c(Cl)cncc1Cl [Example 129]	50 to 1000 nM
CC(Oc1ccc2[nH]nc(-c3ccc(C(=O)N4CCC(O)CC4)cc3)c2c1)c1c(Cl)cncc1Cl (stereo not drawn) [Example 114]	50 to 1000 nM
C[C@@H](Oc1ccc2[nH]nc(/C=C/c3ccc(CN4CCOCC4)nn3)c2c1)c1c(Cl)cncc1Cl [Example 67]	≤ 10 nM

Entry C[C@@H](Oc1ccc2[nH]nc(/C=C/c3ccc(CN4CCOCC4)nc3)c2c1)c1c(Cl)cncc1Cl [Example 137] — recorded IC50 = ≤ 10 nM

Data point: CC(Oc1ccc2[nH]nc(-c3ccc(C(=O)NCCN4CCOCC4)cc3)c2c1)c1c(Cl)cncc1Cl (stereo not drawn) [Example 125] ; IC50 = 50 to 1000 nM

---

Target: FGFR1 (Homo sapiens, UniProt P11362)
Construct: purchased Invitrogen PV4105
Sequence (P11362 22-822): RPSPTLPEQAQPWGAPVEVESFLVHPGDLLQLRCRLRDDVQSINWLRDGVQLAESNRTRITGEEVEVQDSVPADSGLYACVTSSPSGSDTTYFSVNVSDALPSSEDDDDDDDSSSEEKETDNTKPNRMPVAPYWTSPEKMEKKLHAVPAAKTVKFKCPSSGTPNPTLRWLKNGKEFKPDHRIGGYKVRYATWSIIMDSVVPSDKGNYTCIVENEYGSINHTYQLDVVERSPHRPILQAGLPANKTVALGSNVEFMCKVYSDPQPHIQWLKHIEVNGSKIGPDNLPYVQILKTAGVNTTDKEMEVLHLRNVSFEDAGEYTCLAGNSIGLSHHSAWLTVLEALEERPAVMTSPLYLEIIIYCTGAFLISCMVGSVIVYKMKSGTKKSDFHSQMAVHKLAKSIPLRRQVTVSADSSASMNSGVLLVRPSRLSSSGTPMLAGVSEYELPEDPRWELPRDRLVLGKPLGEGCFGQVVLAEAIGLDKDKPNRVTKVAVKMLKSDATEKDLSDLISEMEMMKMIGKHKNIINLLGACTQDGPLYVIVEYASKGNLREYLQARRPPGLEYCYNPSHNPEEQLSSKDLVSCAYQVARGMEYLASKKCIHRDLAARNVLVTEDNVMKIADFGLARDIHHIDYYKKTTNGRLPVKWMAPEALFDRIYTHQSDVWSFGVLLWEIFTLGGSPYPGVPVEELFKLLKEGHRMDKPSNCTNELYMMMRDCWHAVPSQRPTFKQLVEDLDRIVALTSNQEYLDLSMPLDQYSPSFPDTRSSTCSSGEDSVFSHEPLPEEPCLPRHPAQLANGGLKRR
Assay: Z′-LYTE Detection Kinase Assay, in vitro enzymatic activity
Format: biochemical
Details: 0.6 nM FGFR1, 2 uM Tyr4 peptide, 10 uM ATP, 60 min 23° C.
pIC50: −log10 of the molar value.
Measured pIC50 values are reported for all entries that follow.

Would you please look over these solved cases?
Compound	Target or system	pIC50
C[C@H](Oc1ccc2[nH]nc(/C(F)=C\c3ccc(CN4CCOCC4)nc3)c2c1)c1c(Cl)cncc1Cl	FGFR1 (Homo sapiens, UniProt P11362)	6.00 to 7.30
CCN(Cc1ccccc1)Cc1ccc(/C=C/c2n[nH]c3ccc(OC(C)c4c(Cl)cncc4Cl)cc23)cc1 (stereo not shown) [Example 91]	FGFR1 (Homo sapiens, UniProt P11362)	6.00 to 7.30
CC(Oc1ccc2[nH]nc(/C=C/c3ccc(CN(C)Cc4ccccc4)cc3)c2c1)c1c(Cl)cncc1Cl (stereo not shown)	FGFR1 (Homo sapiens, UniProt P11362)	6.00 to 7.30

Alright, here's another compound for you.
The reported pIC50 of the compound CC(Oc1ccc2[nH]nc(/C=C/c3ccc(CN4CCN(C(C)C)CC4)cc3)c2c1)c1c(Cl)cncc1Cl (stereo not shown) was ≥ 8.00
